Each recorded value in this set is attributed to patent US20260092093A1.

Biological target: T1, recombinant hIL-18Rα extracellular domain (human, UniProt Q13478 22-329, biotin label (selection) or fluorescent probe (single-clone FACS), sites not given)
T1 construct: extracellular domain; also called hIL-18Rα ECD; hIL-18Rα-ECD
T1 sequence (looked up): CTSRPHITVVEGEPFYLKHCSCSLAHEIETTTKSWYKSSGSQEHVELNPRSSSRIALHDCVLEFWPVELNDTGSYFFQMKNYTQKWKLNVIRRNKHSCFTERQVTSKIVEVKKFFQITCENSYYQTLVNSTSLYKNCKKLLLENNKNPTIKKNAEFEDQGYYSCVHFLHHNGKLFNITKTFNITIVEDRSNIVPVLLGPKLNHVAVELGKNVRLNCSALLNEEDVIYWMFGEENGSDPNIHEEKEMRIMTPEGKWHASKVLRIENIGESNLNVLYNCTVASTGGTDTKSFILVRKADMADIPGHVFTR
Test: single-clone FACS, yeast display, 10 nM labelled hIL-18Rα ECD
# % of fluorescence positive cells per entry

Some entries whose results are on file:
SEQ ID NO 69 (ligand) YFPKLVSKLSVIRNLNDQVLFIDQGNRPLFEDMTDSDCRDNAPRTIFIISMYKWSAIRGMAVTISVKCEKISTLSCENKIISFKEMNPPDVIKDTKSDIIFFQTSVPGHDNKMQFESSSYEGYFLACEKERDLFKLILKKEDELGDRSIMFTVQNED
60.9%
SEQ ID NO 67 (ligand) YFTKLRSKLSVIRNLNDQVLFIDQGNRPLFEDMTDSDCRDNAPRTIFIISMYKLSHLRGIAVTISVKCEKISTLSCENKIISFKEMNPPDAIKDTKSDIIFFQSSVPGHDNKMQFESSSYEGYFLACEKERDLFKLILKKEDELGDRSIMFTVQNED
66.4%

q: # query: % of fluorescence positive cells of entry IL-18 variant polypeptide M18 (ligand) YFPKLRSKLSVIRNLNDQVLFIDQGNRPLFEDMTDSDCRDNAPRTIFIISMYKSSRRRGMAVTISVKCEKISTLSCENKIISFKEMNPPDGIKDTKSDIIFFQSSVPGHDNKMQFESSSYEGYFLACEKERDLFKLILKKEDELGDRSIMFTVQNED
a: 80.9%
